Test: Confirmation Concentration-Response Assay for lipid storage modulators: for probe SAR
Settings: Drosophila S3 cells, BODIPY lipid droplet fluorescence, 18-24 h; series mostly up to 46.1 µM
Records with an inconclusive call do not appear. Activity calls are given as the source filed them. Calls follow the shape of the dose curve; as a rule, active = well fitted inhibition curve with a large enough effect; inconclusive = small, poorly fitted or top-dose-only effect, or effect the other way; inactive = no such curve, though single readings can be large or run the other way.
MEASURED PROPERTY: Potency

{"columns": ["COMPOUND", "Potency"],
 "data": [
  ["COc1ccc(-c2csc(NC(=O)CSc3nnc(NC4CC4)s3)n2)cc1OC", "inactive"],
  ["Cc1nc(SC(C)C(=O)Nc2nc(-c3ccccc3)cs2)n(CC2CCCO2)c1C (configuration not stated)", "4.45 µM (active)"],
  ["CCOc1ccc(CCNC(=O)c2cc3sccc3n2CCc2ccccc2)cc1OCC", "0.0281 µM (active)"],
  ["CCn1c(C(=O)NCCc2ccc(OC)c(OC)c2)cc2sccc21", "3.97 µM (active)"],
  ["O=C(NC1CCCc2c1cnn2-c1ccc(F)cc1F)c1cnccn1 (configuration not stated)", "0.25 µM (active)"],
  ["COc1ccc(CCNC(=O)c2cc3sc(C)cc3n2C)cc1OC", "2.81 µM (active)"]
]}

# input compound: O=C(NC1CCCc2c1cnn2-c1ccccc1F)c1cccc2nccnc12 (configuration not stated) ; wanted: its Potency
2.74 µM (active)

# input compound: COc1ccc(-c2csc(NC(=O)Cc3cccs3)n2)cc1 ; wanted: its Potency
25 µM (active)

# input compound: COc1ccc(-c2csc(NC(=O)CSc3nnc(Nc4ccccc4)s3)n2)cc1 ; wanted: its Potency
0.628 µM (active)

# input compound: CCOC(=O)C1CCN(C(=O)C2(NC(=O)Nc3ccccc3Cl)CCCCC2)CC1 ; wanted: its Potency
1.44 µM (active)

# input compound: CCOc1ccc(CCNC(=O)c2cc3sccc3n2Cc2ccccc2)cc1OCC ; wanted: its Potency
0.0353 µM (active)

# input compound: O=C(NC1CCCc2c1cnn2-c1ccc(F)cc1F)C1CCCCC1 (configuration not stated) ; wanted: its Potency
4.99 µM (active)

# input compound: CN(C)CC(=O)NC1CCCc2c1cnn2-c1ccc(F)cc1F (configuration not stated) ; wanted: its Potency
inactive

# input compound: Cn1c(=O)n(-c2ccc(C(C)(C)C#N)cc2)c2c3cc(-c4cnc5ccccc5c4)ccc3ncc21 ; wanted: its Potency
1.12 µM (active)

# input compound: CC(C)(C)OC(=O)NC1CCCc2c1cnn2-c1ccc(F)cc1F (configuration not stated) ; wanted: its Potency
0.888 µM (active)

# input compound: CC(=O)NCc1ccc(-c2csc(NC(=O)Cc3cccs3)n2)cc1 ; wanted: its Potency
inactive

# input compound: O=C(NC1CCCc2c1cnn2-c1ccc(F)cc1F)c1ccsc1 (configuration not stated) ; wanted: its Potency
0.0315 µM (active)

# input compound: O=C(NC1CCCc2c1cnn2-c1cc(F)cc(F)c1)c1cccc2nccnc12 (configuration not stated) ; wanted: its Potency
3.45 µM (active)

# input compound: CCOc1ccc(CCNC(=O)c2cc3ccccc3n2C)cc1OCC ; wanted: its Potency
7.91 µM (active)

# input compound: O=C(NCCc1ccc(O)c(O)c1)c1cc2sccc2n1Cc1ccccc1 ; wanted: its Potency
inactive

# input compound: O=C(N[C@H]1CCCc2c1cnn2-c1ccc(F)cc1F)c1ccccn1 ; wanted: its Potency
7.91 µM (active)

# input compound: O=C(NC1CCCc2c1cnn2-c1ccc(F)cc1F)C1CCCCN1 (configuration not stated) ; wanted: its Potency
inactive
